experimental_system: RAF proto-oncogene serine/threonine-protein kinase (Homo sapiens, UniProt P04049, Y340D/Y341D)
Sequence (P04049 whole entry Y340D/Y341D, the tested form may be a part): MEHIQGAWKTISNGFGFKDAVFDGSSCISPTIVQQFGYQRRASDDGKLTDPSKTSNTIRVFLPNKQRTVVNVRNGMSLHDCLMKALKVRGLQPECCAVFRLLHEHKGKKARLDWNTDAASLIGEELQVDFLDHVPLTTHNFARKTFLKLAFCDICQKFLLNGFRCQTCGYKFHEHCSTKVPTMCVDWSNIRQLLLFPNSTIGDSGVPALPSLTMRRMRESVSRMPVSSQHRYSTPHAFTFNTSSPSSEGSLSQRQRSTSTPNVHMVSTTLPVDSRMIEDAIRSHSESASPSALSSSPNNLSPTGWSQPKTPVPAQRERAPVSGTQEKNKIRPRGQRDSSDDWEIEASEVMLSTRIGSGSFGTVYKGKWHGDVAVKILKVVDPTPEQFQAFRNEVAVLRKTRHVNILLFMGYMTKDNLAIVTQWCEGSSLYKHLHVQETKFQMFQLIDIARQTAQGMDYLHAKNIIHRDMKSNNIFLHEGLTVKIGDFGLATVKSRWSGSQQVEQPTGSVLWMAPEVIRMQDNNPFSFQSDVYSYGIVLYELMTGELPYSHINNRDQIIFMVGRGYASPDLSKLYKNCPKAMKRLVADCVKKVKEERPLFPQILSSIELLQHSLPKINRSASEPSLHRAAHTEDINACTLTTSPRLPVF
assay_remarks: Inhibition of recombinant human GST-tagged c-RAF (306 to 648 residues) Y340D/Y341D mutant expressed in baculovirus expression system using recombinant human full length N-terminal His-tagged MEK1 as substrate preincubated for 1 hr followed by substrate addition measured after 25 mins
property_name: pIC50
Bear in mind: pIC50 is minus log10 of a mol/L concentration; give just that figure.

Task: I am curious: what pIC50 value has been reported for S=C(Nc1ccccc1)N1N=C(c2ccc(Br)cc2)CC1c1ccc2c(c1)OCCO2 (stereo not drawn) ?
Result: 4.75

Task: Quick one: S=C(Nc1ccccc1)N1N=C(c2ccc(OCc3ccccc3)cc2)CC1c1ccc2c(c1)OCCO2 (stereo not drawn)
Result: 5.50

Hey, just so you know, these numbers are from ChEMBL document CHEMBL4270537.
